Tested on: Saccharomyces cerevisiae BY4741 SeMeCo community
Assay: z-score of subpopulation abundance vs DMSO median, subpopulation auxotrophic for UM; higher = larger share of this subpopulation than in DMSO controls
Conditions: 10 µM; 24 h; SM minimal medium; subpopulation (auxotrophy): UM
Think of 0.6 as a floor: if z-score of subpopulation abundance stands on it or above, it is 1 (yes); beneath it, 0 (no).

Before answering, review these 2 worked examples.
Oc1ccc([C@H]2COc3cc(O)ccc3C2)cc1 : 0 (no)
Cc1onc(-c2ccccc2)c1C(=O)N[C@@H]1C(=O)N2[C@@H]1SC(C)(C)[C@@H]2C(=O)O [Oxacillin sodium monohydrate] : 0 (no)

Data request: Does Nc1nc(=O)[nH]cc1F have a reported z-score of subpopulation abundance of at least 0.6?
Data returned: 1 (yes)

Data request: Does CO[C@@]1(NC(=O)CSC[C@@H](N)C(=O)O)C(=O)N2C(C(=O)O)=C(CSc3nnnn3C)CS[C@@H]21 [Cefminox Sodium] have a reported z-score of subpopulation abundance of at least 0.6?
Data returned: 0 (no)

Data request: Does CC(=O)O[C@H]1C[C@@H]2CC[C@@H]3[C@H](CC[C@@]4(C)[C@H]3C[C@H]([N+]3(C)CCCCC3)[C@@H]4OC(C)=O)[C@@]2(C)C[C@@H]1N1CCCCC1 [Vecuronium Bromide] have a reported z-score of subpopulation abundance of at least 0.6?
Data returned: 0 (no)

---

Test system: Saccharomyces cerevisiae BY4741 SeMeCo community
Test: z-score of subpopulation abundance vs DMSO median, subpopulation auxotrophic for HUM; higher = larger share of this subpopulation than in DMSO controls
Settings: 10 µM; 24 h; SM minimal medium; subpopulation (auxotrophy): HUM
Where a name gives a salt, the structure may show the parent alone.
Test Readout: z-score of subpopulation abundance
No unit in the answer, please; the number alone is enough.

CCc1cc(C(N)=S)ccn1 [Ethionamide] : -0.25
Oc1ccc(C2CNCCc3c2cc(O)c(O)c3Cl)cc1 (stereo not drawn) [Fenoldopam mesylate] : -0.92

Could you now look at the following molecule, please?
Input O=C(Cn1cnnn1)N[C@@H]1C(=O)N2C(C(=O)O)=C(CSc3nncs3)CS[C@H]12 [Ceftezole] . Output z-score of subpopulation abundance: -1.25

---

Tested on: Saccharomyces cerevisiae BY4741 SeMeCo community
Test: z-score of subpopulation abundance vs DMSO median, subpopulation auxotrophic for U; higher = larger share of this subpopulation than in DMSO controls
Conditions: 10 µM; 24 h; SM minimal medium; subpopulation (auxotrophy): U
Counter-ions that a name gives are not always drawn.
Note: every record was labeled by where its z-score of subpopulation abundance sits among low interval = under -0.6, middle interval = from -0.6 up to 0.1, high interval = 0.1 and over

Cc1c(-c2ccc(O)cc2)n(Cc2ccc(OCCN3CCCCCC3)cc2)c2ccc(O)cc12 [Bazedoxifene Acetate] : middle interval

Data request: Classify this compound: COc1ccc([C@@H]2Sc3ccccc3N(CCN(C)C)C(=O)[C@@H]2OC(C)=O)cc1 [Diltiazem HCl]
Data returned: middle interval

Data request: Classify this compound: CC1=Nc2ccc(Cl)cc2S(=O)(=O)N1 [Diazoxide]
Data returned: high interval

---

System: Saccharomyces cerevisiae BY4741 SeMeCo community
Test: z-score of subpopulation abundance vs DMSO median, subpopulation auxotrophic for HLM; higher = larger share of this subpopulation than in DMSO controls
Conditions: 10 µM; 24 h; SM minimal medium; subpopulation (auxotrophy): HLM
Counter-ions that a name gives are not always drawn.
Test Readout: z-score of subpopulation abundance
No unit in the answer, please; the number alone is enough.

Use these answered entries as a reference point.
NC[C@H]1O[C@H](O[C@H]2[C@H](O[C@@H]3O[C@H](CO)[C@@H](O)[C@H]3O)[C@@H](O)[C@H](N)C[C@@H]2N)[C@H](N)[C@@H](O)[C@@H]1O [Ribostamycin Sulfate] : -0.38
O=c1[nH]cnc2c1ncn2[C@@H]1O[C@H](CO)[C@@H](O)[C@H]1O : -0.33
O=C(C1CCCCC1)N1CC(=O)N2CCc3ccccc3C2C1 (stereo not drawn) : -1.06

Input CO[C@H]1O[C@@H]2O[C@@]3(C)CC[C@H]4[C@H](C)CC[C@@H]([C@H]1C)[C@@]24OO3 . Output z-score of subpopulation abundance: -0.27

Input COc1cccc2c1C(=O)c1c(O)c3c(c(O)c1C2=O)C[C@@](O)(C(=O)CO)C[C@@H]3O[C@H]1C[C@H](N)[C@H](O[C@@H]2CCCCO2)[C@H](C)O1 . Output z-score of subpopulation abundance: -1.27

Input CCOC(=O)C1=C(COCCN)NC(C)=C(C(=O)OC)[C@@H]1c1ccccc1Cl . Output z-score of subpopulation abundance: 1.82

Input O=[N+]([O-])c1ccc(O)c2ncccc12 . Output z-score of subpopulation abundance: 65.9

Input Cn1c(=O)c2[nH]cnc2n(C)c1=O . Output z-score of subpopulation abundance: -0.27
